- Test system: Symmetric Di-methyl Arginine (SDMA) signal (PRMT5 inhibition) in HCT116 MTAP-deleted cells
- ASSAY DETAILS: Symmetric di-methyl arginine image-based high content screen assay (SDMA assay), HCT116 MTAP-deleted
- Type: cell-based
- CONDITION PARAMETERS: Homo sapiens, HCT-116, HCT116 MTAP-deleted, class symbols
- Procedure: Symmetric di-methyl arginine image-based high content screen assay (SDMA assay) was performed in HCT116 WT and HCT116 MTAP-deleted cell lines to measure Symmetric Di-methyl Arginine (SDMA) signal reduction after selective PRMT5 inhibition in the MTAP-deleted cells. Control compounds were analyzed in parallel each time for quality control. […] The SDMA signal and DAPI signal per cell were counted using a Cellomics CX7 LZR instrument reading under 488 and 405 nm laser, respectively. […]
Task for the reader: assign each of the following compounds its reported EC50.

So what does the record say about EC50 for `CN(Cc1cccc2ccoc12)C(=O)c1ccc2nc(N)c3cncn3c2c1` ? > 5 nM

Could you share which EC50 value was measured for `CC(C)N(Cc1ccc(C(F)(F)F)cn1)C(=O)c1cc2c(cc1F)nc(N)c1cncn12` ? ≤ 1 nM

Fill in the blank: the reported EC50 of `CC(=O)N(C)N(Cc1ccc(C(F)(F)F)cn1)C(=O)c1ccc2nc(N)n3cncc3c2c1` is ____. > 5 nM

Please give the measured EC50 for this compound: `C[C@H]1CN(C(=O)c2cc3c(cc2Cl)nc(N)c2cncn23)[C@@H](c2ccc(C(F)(F)F)cn2)CO1` ≤ 1 nM

---

- Test system: Symmetric Di-methyl Arginine (SDMA) signal (PRMT5 inhibition) in HCT116 MTAP-deleted cells
- ASSAY DETAILS: Symmetric di-methyl arginine image-based high content screen assay (SDMA assay), HCT116 MTAP-deleted
- Assay type: cell-based
- CONDITION PARAMETERS: HCT116 MTAP-deleted, class symbols
PARAMETER: EC50

I would be grateful if you could share the reported EC50 for `Nc1nc2cnc(C(=O)N3CCC[C@@H]4Oc5cc(S(F)(F)(F)(F)F)ccc5[C@@H]43)cc2n2cncc12` . ≤ 1 nM

---

- ASSAY DETAILS: PK data (IV/PO) in Sprague-Dawley rat
- Assay type: in vivo
- CONDITION PARAMETERS: Sprague-Dawley, rat, in vivo, iv, 0.33 mg/kg, IV 0.33 mg/Kg, read-out: Observed CL (converted)
Define the label as T when clearance is strictly less than 8 mL/min/kg and as F in all remaining cases.

Answer whether the compound Nc1nc2cnc(C(=O)N3CCC[C@@H]4Oc5cc(C(F)(F)F)cc(F)c5[C@@H]43)cc2n2cncc12 (single isomer, unassigned) [Fg-53] has clearance strictly less than 8 mL/min/kg T

Consider the compound Cc1ncc2c(N)nc3cnc(C(=O)N4CCC[C@@H]5Oc6cc(OC(F)(F)F)ccc6[C@@H]54)cc3n12 [Ff-340] . Is its clearance strictly less than 8 mL/min/kg? F

Field: below-cutoff. Rule: recorded clearance strictly less than 8 mL/min/kg. Subject: Nc1nc2cnc(C(=O)N3CCC[C@@H]4Oc5cc(OC(F)(F)F)cc(F)c5[C@@H]43)cc2n2cncc12 (single isomer, unassigned) [Fg-55] T

Dear colleague, could you confirm whether clearance of Nc1nc2ccc(C(=O)N3CCC[C@@H]4Oc5cc(C(F)(F)F)ccc5[C@@H]43)cc2n2cncc12 [Ff-111] falls below 8 mL/min/kg? Thanks. T
